Just for reference, patent US11814364B2 is where these values come from.

Molecular target: human plasma kallikrein (Homo sapiens)
Sequence (P03952 391-638 limits assumed): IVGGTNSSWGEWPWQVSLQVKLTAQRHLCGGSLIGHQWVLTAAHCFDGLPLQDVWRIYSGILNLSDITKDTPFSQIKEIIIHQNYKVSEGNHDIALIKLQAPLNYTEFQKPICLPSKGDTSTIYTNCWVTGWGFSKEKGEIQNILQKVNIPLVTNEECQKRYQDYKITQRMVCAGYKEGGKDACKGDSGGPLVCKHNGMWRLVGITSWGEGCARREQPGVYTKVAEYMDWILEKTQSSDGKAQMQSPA
Sequence (P03952 20-390 partner limits assumed): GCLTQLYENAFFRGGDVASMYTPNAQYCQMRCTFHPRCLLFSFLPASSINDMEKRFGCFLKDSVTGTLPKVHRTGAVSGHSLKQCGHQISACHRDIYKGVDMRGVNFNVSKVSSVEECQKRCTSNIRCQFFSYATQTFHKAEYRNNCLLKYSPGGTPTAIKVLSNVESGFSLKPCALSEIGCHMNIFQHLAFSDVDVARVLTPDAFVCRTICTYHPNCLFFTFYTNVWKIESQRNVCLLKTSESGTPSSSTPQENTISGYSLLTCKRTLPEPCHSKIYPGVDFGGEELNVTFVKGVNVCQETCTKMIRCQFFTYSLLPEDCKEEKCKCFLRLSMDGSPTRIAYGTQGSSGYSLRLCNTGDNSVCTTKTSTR
Test: Kallikrein inhibition FLINT assay with quenched AMC peptide substrate Z-Gly-Pro-Arg-AMC (end point EP or kinetic KIN reads)
Format: biochemical
Details: kinetic reads at 5 min intervals over 30 min; read-out: Kallikrein (KIN) IC50
Metric: IC50 (nM)

{"columns": ["Compound", "System Under Test", "IC50 / nM"],
 "data": [
  ["NC(=O)Cc1ccn(CC(c2ccc(-c3c(-n4cnnn4)ccc(Cl)c3F)c[n+]2[O-])n2cc(-c3ccnc(C(F)(F)F)c3)cn2)n1 (centres unmarked) [Example P486]", "human plasma kallikrein (Homo sapiens)", 10.2],
  ["[O-][n+]1cc(-c2c(-n3cnnn3)ccc(Cl)c2F)ccc1C(CC1CCCO1)n1cc(-c2ccncc2)cn1 (centres unmarked) [Example P186]", "human plasma kallikrein (Homo sapiens)", 320],
  ["O=C(O)c1ccc(-c2cnn(C(CC3CC3C(=O)N3CCC(c4ccccc4)C3)c3ccc(-c4cc(Cl)ccc4-n4cnnn4)c[n+]3[O-])c2)cc1 (single isomer, unassigned) [Example P101]", "human plasma kallikrein (Homo sapiens)", 625],
  ["Cn1ncc(-c2cnn(C(CC3CC3)c3cc(Cl)c(-c4c(-n5cnnn5)ccc(Cl)c4F)c[n+]3[O-])c2)cc1=O (single isomer, unassigned) [Example P190]", "human plasma kallikrein (Homo sapiens)", 49.2],
  ["[2H]C([2H])([2H])OCCC(c1ccc(-c2c(-n3cnnn3)ccc(Cl)c2F)c[n+]1[O-])n1cc(-c2ccc(NC(=O)OC)cc2)cn1 (centres unmarked) [Example P289]", "human plasma kallikrein (Homo sapiens)", 13.8],
  ["[O-][n+]1cc(-c2c(-n3cnnn3)ccc(Cl)c2F)ccc1[C@@H](CCOC(F)F)n1cc(-c2scnc2Cl)cn1 [Example P582]", "human plasma kallikrein (Homo sapiens)", 0.9],
  ["Cn1cc(-c2cnn([C@H](CCOC(F)F)c3ccc(-c4c(-n5cc(C(F)(F)F)nn5)ccc(Cl)c4F)c[n+]3[O-])c2)nn1 [Example P760]", "human plasma kallikrein (Homo sapiens)", 454],
  ["Cn1ncnc1-c1cnn(C(CC2CC2)c2ccc(-c3c(-n4cc(C(F)(F)F)nn4)ccc(Cl)c3F)c[n+]2[O-])c1 (centres unmarked) [Example P874]", "human plasma kallikrein (Homo sapiens)", 41.4],
  ["[O-][n+]1cc(-c2c(-n3cnnn3)ccc(Cl)c2F)ccc1[C@@H](Cn1ccc(OC(F)F)n1)n1cc(-c2ccnc(C(F)(F)F)c2)cn1 [Example P533]", "human plasma kallikrein (Homo sapiens)", 7.7],
  ["Cn1ccc(CC(c2ccc(-c3c(-n4cnnn4)ccc(Cl)c3F)c[n+]2[O-])n2cc(-c3ccnc(C(F)(F)F)c3)cn2)n1 (centres unmarked) [Example P377]", "human plasma kallikrein (Homo sapiens)", 2.1]
]}

a. [O-][n+]1ccc(-c2cnn(C(Cc3ccc(F)cc3)c3ccc(-c4c(OC(F)F)ccc(Cl)c4F)c[n+]3[O-])c2)cc1 (single isomer, unassigned) [Example Q19]
b. CC(C)(C)c1cc(-c2cnn(C(Cn3cc(F)cn3)c3ccc(-c4c(-n5cnnn5)ccc(Cl)c4F)c[n+]3[O-])c2)ccn1 (centres unmarked) [Example P395]
Return label of the item with the larger IC50. Candidates: a , b . Answer by stating the label of the chosen item.
a
(a: 48.4 nM, b: 25.5 nM)

I. Nc1ccc(-c2cnn(C(Cn3cccn3)c3ccc(-c4c(-n5cnnn5)ccc(Cl)c4F)c[n+]3[O-])c2)c(F)n1 (single isomer, unassigned) [Example P314]
II. [O-][n+]1cc(-c2c(-n3cc(Cl)nn3)ccc(Cl)c2F)ccc1[C@@H](CCOC(F)F)n1cc(-c2ncnn2C(F)F)cn1 [Example P683]
III. NC(=O)c1ccc(-c2cnn(C(Cc3ccn(C(F)F)n3)c3ccc(-c4c(OC(F)F)ccc(Cl)c4F)c[n+]3[O-])c2)cc1F (single isomer, unassigned) [Example Q72]
rank_up(items): orders items by reported IC50 in ascending numerical order. Thanks in advance for listing the labels in the requested order.
I, II, III
(I: 1.4 nM, II: 29.5 nM, III: 544 nM)
